Molecular target: cellodextrin phosphorylase (CDP) (Acetivibrio thermocellus)
Construct: 1009 amino acids, 114 kDa per monomer, homodimer
Sequence (Q93HT8 1-984): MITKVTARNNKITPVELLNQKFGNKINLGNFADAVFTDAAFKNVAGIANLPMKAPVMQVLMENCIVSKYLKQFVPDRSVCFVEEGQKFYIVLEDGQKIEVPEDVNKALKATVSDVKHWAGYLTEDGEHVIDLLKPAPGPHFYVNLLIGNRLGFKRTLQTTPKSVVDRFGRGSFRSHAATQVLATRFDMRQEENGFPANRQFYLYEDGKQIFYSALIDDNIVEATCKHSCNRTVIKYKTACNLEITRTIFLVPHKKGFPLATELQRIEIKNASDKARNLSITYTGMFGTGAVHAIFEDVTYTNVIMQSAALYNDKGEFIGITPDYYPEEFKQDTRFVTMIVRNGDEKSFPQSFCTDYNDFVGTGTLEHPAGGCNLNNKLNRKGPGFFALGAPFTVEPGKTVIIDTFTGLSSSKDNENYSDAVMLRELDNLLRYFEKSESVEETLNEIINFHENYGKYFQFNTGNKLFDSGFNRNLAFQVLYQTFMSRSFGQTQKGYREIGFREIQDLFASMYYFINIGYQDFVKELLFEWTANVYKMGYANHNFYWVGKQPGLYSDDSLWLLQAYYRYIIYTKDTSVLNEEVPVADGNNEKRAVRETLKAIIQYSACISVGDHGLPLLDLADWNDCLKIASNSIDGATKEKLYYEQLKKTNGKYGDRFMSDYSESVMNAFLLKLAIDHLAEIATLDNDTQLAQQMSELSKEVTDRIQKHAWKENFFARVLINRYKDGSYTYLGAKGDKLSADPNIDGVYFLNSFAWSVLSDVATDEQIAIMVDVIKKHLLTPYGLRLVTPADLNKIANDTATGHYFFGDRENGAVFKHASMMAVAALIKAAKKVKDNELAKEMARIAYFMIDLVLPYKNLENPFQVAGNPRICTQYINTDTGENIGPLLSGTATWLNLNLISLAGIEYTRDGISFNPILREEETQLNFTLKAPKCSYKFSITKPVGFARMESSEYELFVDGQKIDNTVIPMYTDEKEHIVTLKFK
Experiment: STD NMR titration (STD-AF of H4beta, […] s saturation)
Conditions: [D11]Tris 25 mM pH 7.4, NaCl 100 mM; no phosphate; apparent
pKd: −log10 of the molar value.
quantity.kind: pKd

[
  {
    "compound": "OC[C@H]1O[C@@H](O[C@H]2[C@H](O)[C@@H](O)C(O)O[C@@H]2CO)[C@H](O)[C@@H](O)[C@@H]1O (stereo partly shown)",
    "value.observed": 2.66
  }
]
